This collection of values is drawn from patent US7652020B2.

# TGT: purified catalytic domain of recombinant human TACE (rhTACEc) (Homo sapiens, UniProt P78536, N452Q/S266A)
# Construct: Residue 215 to 477 with two mutation (S266A and N452Q) and a 6×His tail; 6xHis (C); made in house; host or cells: baculovirus/Hi5 insect cells
# Sequence (P78536 215-477 S266A/N452Q): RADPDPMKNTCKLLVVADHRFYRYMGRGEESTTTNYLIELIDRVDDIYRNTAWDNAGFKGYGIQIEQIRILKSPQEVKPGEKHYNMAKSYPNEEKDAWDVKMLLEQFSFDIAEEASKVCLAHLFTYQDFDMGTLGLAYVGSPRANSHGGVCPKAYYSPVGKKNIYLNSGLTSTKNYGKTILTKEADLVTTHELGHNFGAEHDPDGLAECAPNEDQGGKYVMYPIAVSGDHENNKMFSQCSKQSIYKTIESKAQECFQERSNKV
# ASSAY_NAME: TACE kinetic assay: cleavage of internally quenched peptide substrate SPDL-3, fluorescence
# Format: biochemical
# STATED_CONDITIONS: TACE inhibitory activity, class symbols; read-out: Ki
ASSAY_ENDPOINT: Ki

Q: Return reported Ki. Input compound: C[C@@H](NC(=O)[C@H](O)[C@@H](O)C(=O)N1CCNCC1c1ccccc1)c1ccc(-n2cccn2)cc1 (stereo partly shown)
Result: 20 to 100 nM

Q: Return reported Ki. Input compound: CO[C@@H](C(=O)NCc1ccc(-c2ccc(F)cc2OCCC2CCCCC2)cc1)[C@@H](O)C(=O)N1Cc2cccnc2C1
Result: 20 to 100 nM

Q: Return reported Ki. Input compound: Cc1nnc([C@H](O)[C@@H](O)C(=O)NCC2CCN(c3ccc(F)cc3C#N)CC2)n1C
Result: > 1000 nM

Q: Return reported Ki. Input compound: NC[C@@H]1[C@H]2CN(C(=O)[C@H](O)[C@@H](O)C(=O)NCC3CCN(c4ccccc4OC(F)(F)F)CC3)C[C@@H]12
Result: 20 to 100 nM

Q: Return reported Ki. Input compound: O=C(NCc1ccc(-c2ccccc2OCCC2CCCC2)cc1)[C@H](O)[C@@H](O)C(=O)N1CCCC1
Result: 20 to 100 nM

Q: Return reported Ki. Input compound: Cn1c(Cc2ccccc2)cnc1[C@H](O)[C@@H](O)C(=O)NCC1CCN(c2ccc(F)cc2C#N)CC1
Result: 100 to 1000 nM

Q: Return reported Ki. Input compound: C[C@@H](NC(=O)[C@H](O)[C@@H](O)C(=O)N1CCc2cccnc2C1)c1ccc(-n2cccn2)cc1
Result: 20 to 100 nM

###

# TGT: purified catalytic domain of recombinant human TACE (rhTACEc) (Homo sapiens, UniProt P78536, N452Q/S266A)
# Construct: Residue 215 to 477 with two mutation (S266A and N452Q) and a 6×His tail; 6xHis (C); made in house; host or cells: baculovirus/Hi5 insect cells
# ASSAY_NAME: TACE kinetic assay: cleavage of internally quenched peptide substrate SPDL-3, fluorescence
# Assay type: biochemical
# STATED_CONDITIONS: TACE inhibitory activity, class symbols; read-out: Ki
ASSAY_ENDPOINT: Ki

Q: Return reported Ki. Input compound: Cn1c(-c2ccccc2)cnc1[C@H](O)[C@@H](O)C(=O)NCC1CCN(c2ccc(F)cc2C#N)CC1 [Compound 2402]
Result: > 1000 nM

Q: Return reported Ki. Input compound: C[C@@H]1CCC[C@H](C)N1C(=O)[C@H](O)[C@@H](O)C(=O)N[C@H](C)c1ccc(-n2cccn2)cc1 [Compound 2409]
Result: 100 to 1000 nM

Q: Return reported Ki. Input compound: N#Cc1cc(F)ccc1N1CCC(CNC(=O)[C@H](O)[C@@H](O)c2cnccn2)CC1 [Compound 2387]
Result: > 1000 nM

Q: Return reported Ki. Input compound: C[C@@H](NC(=O)[C@H](O)[C@@H](O)C(=O)N1Cc2cccnc2C1)c1cccc(OCc2ccccc2)c1 [Compound 2308]
Result: > 1000 nM

###

Would you mind telling me the reported pKi of each entry?
# TGT: purified catalytic domain of recombinant human TACE (rhTACEc) (Homo sapiens, UniProt P78536, N452Q/S266A)
# Construct: Residue 215 to 477 with two mutation (S266A and N452Q) and a 6×His tail; 6xHis (C); made in house; host or cells: baculovirus/Hi5 insect cells
# ASSAY_NAME: TACE kinetic assay: cleavage of internally quenched peptide substrate SPDL-3, fluorescence
# Type: biochemical
# STATED_CONDITIONS: TACE inhibitory activity, class symbols; read-out: Ki
pKi: −log10 of the molar value.

Q: Return reported pKi. Input compound: N#Cc1cc(F)ccc1N1CCC(CNC(=O)[C@H](O)[C@@H](O)C(=O)N2Cc3cccnc3C2)CC1
Result: 7.00 to 7.70

Q: Return reported pKi. Input compound: C[C@@H](NC(=O)[C@H](O)[C@@H](O)C(=O)N1CCCc2ccccc21)c1ccc(-n2cccn2)cc1
Result: 6.00 to 7.00

Q: Return reported pKi. Input compound: CNc1ncc2c(n1)C(C)N(C(=O)[C@H](O)[C@@H](O)C(=O)N[C@H](C)c1ccc(-n3cccn3)cc1)C2 (some centres unmarked)
Result: 7.00 to 7.70

Q: Return reported pKi. Input compound: C[C@@H](NC(=O)[C@H](O)[C@@H](O)C(=O)N1CCC[C@@H]1c1cc[nH]n1)c1ccc(-n2cccn2)cc1
Result: > 7.70

Q: Return reported pKi. Input compound: CC(c1cccc(Cl)c1)N(C(=O)[C@H](O)[C@@H](O)C(=O)N[C@H](C)c1ccc(-n2cccn2)cc1)C1CC1 (some centres unmarked)
Result: < 6.00

Q: Return reported pKi. Input compound: N#Cc1ccccc1N1CCC2(CC1)CC2NC(=O)[C@H](O)[C@@H](O)C(=O)N1Cc2ccccc2C1 (some centres unmarked) [Compound 2155]
Result: < 6.00

Q: Return reported pKi. Input compound: CCNc1nc([C@H]2c3ccccc3CCN2C(=O)[C@H](O)[C@@H](O)C(=O)N[C@H](C)c2ccc(-n3cccn3)cc2)cs1
Result: > 7.70

Q: Return reported pKi. Input compound: C[C@@H](NC(=O)[C@](C)(O)[C@@H](O)C(=O)N1CCCCC1c1ccccc1)c1ccc(-n2cccn2)cc1 (some centres unmarked)
Result: < 6.00

Q: Return reported pKi. Input compound: COc1nc(CNC(=O)[C@H](O)[C@@H](O)C(=O)N2CCCC2)ccc1-c1ccccc1OC(F)(F)F
Result: < 6.00

Q: Return reported pKi. Input compound: C[C@@H](NC(=O)[C@H](O)[C@@H](O)C(=O)N1CCC[C@@H]1c1csc(NS(C)(=O)=O)n1)c1ccc(-n2cccn2)cc1
Result: > 7.70

Q: Return reported pKi. Input compound: C[C@@H](NC(=O)[C@H](O)[C@@H](O)C(=O)N1C[C@H](O)[C@H](O)[C@H]1c1cccc(Cl)c1)c1ccc(-n2cccn2)cc1
Result: 6.00 to 7.00

Q: Return reported pKi. Input compound: CCC(c1cccc(Cl)c1)N(C)C(=O)[C@H](O)[C@@H](O)C(=O)N[C@H](C)c1ccc(-n2cccn2)cc1 (some centres unmarked)
Result: 7.00 to 7.70

Q: Return reported pKi. Input compound: C[C@@H](NC(=O)[C@H](O)[C@@H](O)C(=O)N1CCc2[nH]ncc2C1)c1ccc(-n2cccn2)cc1
Result: 7.00 to 7.70

Q: Return reported pKi. Input compound: C[C@@H](NC(=O)[C@H](O)[C@@H](O)C(=O)N1CC(C)(C)CC1c1cccc(Cl)c1)c1ccc(-n2cccn2)cc1 (some centres unmarked)
Result: 6.00 to 7.00

Q: Return reported pKi. Input compound: CNc1nc([C@H]2C=CCN2C(=O)[C@H](O)[C@@H](O)C(=O)N[C@H](C)c2ccc(-n3cccn3)cc2)cs1
Result: > 7.70

Q: Return reported pKi. Input compound: C[C@@H](NC(=O)[C@H](O)[C@@H](O)C(=O)N1CCc2cc(Cl)ccc2C1c1ccccc1)c1ccc(-n2cccn2)cc1 (some centres unmarked)
Result: > 7.70

Q: Return reported pKi. Input compound: C[C@@H](NC(=O)[C@H](O)[C@@H](O)C(=O)N1CCc2ncncc2C1)c1ccc(-n2cccn2)cc1
Result: 6.00 to 7.00

Q: Return reported pKi. Input compound: CNc1ncc2c(n1)CN(C(=O)[C@H](O)[C@@H](O)C(=O)N[C@H](C)c1ccc(-n3cccn3)cc1)C2
Result: > 7.70

Q: Return reported pKi. Input compound: C[C@@H](NC(=O)[C@H](O)[C@@H](O)C(=O)N1CCCC(C)(C)C1)c1ccc(-n2cccn2)cc1
Result: 6.00 to 7.00

Q: Return reported pKi. Input compound: O=C(NCC1CCN(c2ccccc2OCCC2CCCCC2)CC1)[C@H](O)[C@@H](O)C(=O)N1CCCC1
Result: 7.00 to 7.70

Q: Return reported pKi. Input compound: CCNc1nc([C@H]2CCCN2C(=O)[C@H](O)[C@@H](O)C(=O)N[C@H](C)c2ccc(-n3cccn3)cc2)cs1
Result: > 7.70

Q: Return reported pKi. Input compound: C[C@@H](NC(=O)[C@](C)(O)[C@@H](O)C(=O)N1Cc2ccncc2C1)c1ccc(-n2cccn2)cc1
Result: > 7.70

Q: Return reported pKi. Input compound: Cc1cccc2c1CN(C(=O)[C@H](O)[C@@](C)(O)C(=O)N[C@H](C)c1ccc(-n3cccn3)cc1)C2
Result: 7.00 to 7.70

Q: Return reported pKi. Input compound: C[C@@H](NC(=O)[C@H](O)[C@@H](O)C(=O)N1CC(C)(C)C[C@]1(C)c1cccc(Cl)c1)c1ccc(-n2cccn2)cc1
Result: 7.00 to 7.70

Q: Return reported pKi. Input compound: COc1cc([C@@H](C)NC(=O)[C@](C)(O)[C@@H](O)C(=O)N2Cc3cccnc3C2)ccc1-n1cccn1
Result: > 7.70

Q: Return reported pKi. Input compound: C[C@@H](NC(=O)[C@H](O)[C@@H](O)C(=O)N1CCc2nc(N)ncc2C1)c1ccc(-n2cccn2)cc1
Result: 7.00 to 7.70
